System: MDA-MB-231
Assay: MTS assay, MDA-MB-231
Assay type: cell-based
Settings: Homo sapiens, 72 h, read-out: IC50 from MTS assay
measured quantity: pIC50
One number for each entry, as −log10 of the molar value.

Enquiry: Recorded pIC50 of COc1ccc(Sc2cnc(NC(=O)CCc3cccnc3)s2)cc1 [Compound 70] , please.
Return: 6.74

----------
Tested on: Colo205
Assay: MTS assay, Colo205
Assay type: cell-based
Settings: Homo sapiens, COLO 205, 72 h, read-out: IC50 from MTS assay
measured quantity: IC50
In your response, put the unit directly after the numeric value.

Enquiry: Can you look up the measured IC50 of "COc1ccc(Sc2cnc(NC(=O)CCc3cccnc3)s2)cc1" for me?
Return: 0.0682 µM
